# assay-target: human FSH receptor (Homo sapiens, UniProt P23945)
# Construct: expressed in transfected cells; host or cells: CHO cells, cotransfected with a CRE/promotor firefly luciferase reporter
# Sequence (P23945 18-695): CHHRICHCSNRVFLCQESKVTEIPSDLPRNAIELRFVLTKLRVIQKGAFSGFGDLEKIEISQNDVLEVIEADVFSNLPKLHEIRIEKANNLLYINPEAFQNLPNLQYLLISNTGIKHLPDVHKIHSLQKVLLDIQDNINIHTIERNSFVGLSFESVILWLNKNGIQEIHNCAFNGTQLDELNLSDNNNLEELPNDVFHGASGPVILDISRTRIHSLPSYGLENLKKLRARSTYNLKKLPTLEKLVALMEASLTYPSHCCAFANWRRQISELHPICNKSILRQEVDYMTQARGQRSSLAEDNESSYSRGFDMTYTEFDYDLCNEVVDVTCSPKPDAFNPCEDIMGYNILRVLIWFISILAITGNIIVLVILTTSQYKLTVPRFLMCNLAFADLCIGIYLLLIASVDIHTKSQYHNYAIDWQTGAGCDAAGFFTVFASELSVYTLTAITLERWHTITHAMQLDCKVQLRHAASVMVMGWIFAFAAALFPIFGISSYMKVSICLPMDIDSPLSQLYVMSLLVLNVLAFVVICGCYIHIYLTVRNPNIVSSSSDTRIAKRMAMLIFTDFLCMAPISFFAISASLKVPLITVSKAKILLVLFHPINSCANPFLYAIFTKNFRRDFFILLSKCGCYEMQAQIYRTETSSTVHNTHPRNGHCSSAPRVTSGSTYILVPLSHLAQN
# procedure-summary: Antagonistic activity at the human FSH receptor expressed in CHO cells (CRE-luciferase reporter)
# Type: cell-based
# measurement-conditions: CHO cells stably transfected with human FSH receptor and CRE/firefly luciferase reporter; 4 hours incubation; read-out: pIC50 (negative logarithm of the IC50 value) (converted)
Items are presented alongside their recorded IC50.
measurement-name: IC50

COc1cc(OCC2CC2)cc(C(=O)NCC2CCN(c3nc(-c4cccc(C#N)c4)ncc3F)CC2)c1 [Example 19B] :: 10 to 100 nM
COCCCOc1cc(OC)cc(C(=O)NCC2CCN(c3nc(-c4cccc(-c5cc[nH]n5)c4)ncc3F)CC2)c1 [Example 23A] :: 10 to 100 nM
COc1cc(OCC2CC2)cc(C(=O)NCC2CCN(c3ncnc(-c4cccc(C(=O)NCC(F)F)c4)n3)CC2)c1 [Example 32G] :: 10 to 100 nM
COc1cc(OCc2ccccc2)cc(C(=O)NCC2CCN(c3ncnc(-c4cccc(-c5ccccn5)c4)n3)CC2)c1 [Example 12B] :: 10 to 100 nM
COc1cc(OCC2CC2)cc(C(=O)NC(C)C2CCN(c3ccnc(-c4cccc(-n5cccn5)c4)n3)CC2)c1 (centres unmarked) :: < 10 nM
COc1cc(NC(=O)C2CCN(c3ccnc(-c4cccc(-n5cccn5)c4)n3)CC2)cc(OCc2ccc(F)cc2)c1 :: 10 to 100 nM
C#CCOc1cc(OC)cc(C(=O)NCC2CCN(c3nc(-c4cccc(-c5cc[nH]n5)c4)ncc3F)CC2)c1 [Example 23C] :: 10 to 100 nM
COC(=O)c1cnc(-c2cccc(-n3cccn3)c2)nc1N1CCC(CNC(=O)c2cc(OC)cc(OC)c2)CC1 [Example 21B] :: 10 to 100 nM
COc1cc(OCC2CC2)cc(C(=O)NCC2CCN(c3ncnc(-c4cccc(-c5ncc[nH]5)c4)n3)CC2)c1 [Example 40, 2,2,2-trifluoroacetate] :: < 10 nM
COc1cc(OCC2CC2)cc(C(=O)NCC2CCN(c3ccnc(-c4cccc(-n5cccn5)c4)n3)CC2)c1 [Example 15A] :: < 10 nM
COc1cc(NC(=O)C2CCN(c3ccnc(-c4cccc(-n5cccn5)c4)n3)CC2)cc(OC(C)C)c1 :: 10 to 100 nM
COc1cc(OCC2CC2)cc(C(=O)NCC2CCN(c3ncnc(-c4cccc(C(=O)Nc5nccs5)c4)n3)CC2)c1 [Example 32I] :: 10 to 100 nM
COc1cc(OCC2CC2)cc(C(=O)NCC2CCN(c3ccnc(-c4cccc(C(=O)NC(C)(C)C)c4)n3)CC2)c1 [Example 32F] :: 10 to 100 nM
COc1cc(OCC2CC2)cc(C(=O)NCC2CCN(c3nc(-c4cccc(-n5ccnn5)c4)ncc3F)CC2)c1 [Example 28C] :: 10 to 100 nM
COc1cc(OCC2CC2)cc(C(=O)NC(C)C2CCN(c3ccnc(-c4cccc(C#N)c4)n3)CC2)c1 (centres unmarked) :: < 10 nM
COc1cc(OCc2cc(C)on2)cc(C(=O)NCC2CCN(c3ccnc(-c4cccc(-n5cccn5)c4)n3)CC2)c1 [Example 15B] :: < 10 nM
COc1cc(OCC2CC2)cc(C(=O)NCC2CCN(c3ccnc(-c4ccc5oncc5c4)n3)CC2)c1 [Example 33B] :: 10 to 100 nM
COc1cc(OCCO)cc(C(=O)NCC2CCN(c3nc(-c4cccc(-c5cc[nH]n5)c4)ncc3F)CC2)c1 :: 10 to 100 nM
COc1cc(NC(=O)C2CCN(c3ccnc(-c4cccc(-n5cccn5)c4)n3)CC2)cc(OC)c1 :: < 10 nM
COc1cc(OCC2CC2)cc(C(=O)NC2CC23CCN(c2ccnc(-c4cccc(-n5cccn5)c4)n2)CC3)c1 (centres unmarked) :: 10 to 100 nM
COCCOc1cc(OC)cc(C(=O)NCC2CCN(c3ccnc(-c4cccc(-n5cccn5)c4)n3)CC2)c1 [Example 15D] :: 10 to 100 nM
COc1cc(OCC2CC2)cc(C(=O)NCC2CCN(c3ccnc(-c4cccc(-n5ncc(C(=O)O)c5C)c4)n3)CC2)c1 [Example 33D] :: 10 to 100 nM
COc1cc(OCC2CC2)cc(C(=O)NCC2CCN(c3ncnc(-c4cccc(C(=O)NCCO)c4)n3)CC2)c1 [Example 32H] :: 10 to 100 nM

---

# assay-target: human FSH receptor (Homo sapiens, UniProt P23945)
# Construct: expressed in transfected cells; host or cells: CHO cells, cotransfected with a CRE/promotor firefly luciferase reporter
# procedure-summary: Antagonistic activity at the human FSH receptor expressed in CHO cells (CRE-luciferase reporter)
# Type: cell-based
# measurement-conditions: CHO cells stably transfected with human FSH receptor and CRE/firefly luciferase reporter; 4 hours incubation; read-out: pIC50 (negative logarithm of the IC50 value) (converted)
measurement-name: IC50

COc1cc(OCC2CC2)cc(C(=O)NCC2CCN(c3nc(-c4cccc(-c5ncc[nH]5)c4)ncc3F)CC2)c1 [Example 41, 2,2,2-trifluoroacetate] :: < 10 nM
COc1cc(OCc2ccoc2)cc(C(=O)NCC2CCN(c3ncnc(-c4cccc(-n5cccn5)c4)n3)CC2)c1 [Example 17C] :: 10 to 100 nM
COc1cc(OCC2CC2)cc(C(=O)NCC2CCN(c3ccnc(-c4cccc(C(=O)Nc5ccn(C)n5)c4)n3)CC2)c1 [Example 32C] :: < 10 nM
COc1cc(OCC(F)(F)F)cc(C(=O)NCC2CCN(c3ncnc(-c4cccc(C#N)c4)n3)CC2)c1 [Example 30C] :: 10 to 100 nM
COc1cc(NC(=O)C2CCN(c3ccnc(-c4cccc(-n5cccn5)c4)n3)CC2)cc(OCc2cc(C)on2)c1 :: < 10 nM
COc1cc(OCC2CCOCC2)cc(C(=O)NCC2CCN(c3ncnc(-c4cccc(-n5cccn5)c4)n3)CC2)c1 [Example 17B] :: 10 to 100 nM
COc1cc(OCC(F)(F)F)cc(C(=O)NCC2CCN(c3ncnc(-c4cccc(C#N)c4)n3)CC2)c1 [Example 30D] :: < 10 nM
CNC(=O)COc1cc(OC)cc(C(=O)NCC2CCN(c3ncnc(-c4cccc(-n5cccn5)c4)n3)CC2)c1 [Example 17D] :: 10 to 100 nM
